Biological target: HCV NS5B RdRp genotype 1b (Hepatitis C virus genotype 1b)
Construct: The protein was expressed with an 18 amino acid C-terminal truncation to enhance the solubility; made in house; host or cells: E. coli BL21 (DE3), pET21a
Sequence (Q9WMX2 2420-2992): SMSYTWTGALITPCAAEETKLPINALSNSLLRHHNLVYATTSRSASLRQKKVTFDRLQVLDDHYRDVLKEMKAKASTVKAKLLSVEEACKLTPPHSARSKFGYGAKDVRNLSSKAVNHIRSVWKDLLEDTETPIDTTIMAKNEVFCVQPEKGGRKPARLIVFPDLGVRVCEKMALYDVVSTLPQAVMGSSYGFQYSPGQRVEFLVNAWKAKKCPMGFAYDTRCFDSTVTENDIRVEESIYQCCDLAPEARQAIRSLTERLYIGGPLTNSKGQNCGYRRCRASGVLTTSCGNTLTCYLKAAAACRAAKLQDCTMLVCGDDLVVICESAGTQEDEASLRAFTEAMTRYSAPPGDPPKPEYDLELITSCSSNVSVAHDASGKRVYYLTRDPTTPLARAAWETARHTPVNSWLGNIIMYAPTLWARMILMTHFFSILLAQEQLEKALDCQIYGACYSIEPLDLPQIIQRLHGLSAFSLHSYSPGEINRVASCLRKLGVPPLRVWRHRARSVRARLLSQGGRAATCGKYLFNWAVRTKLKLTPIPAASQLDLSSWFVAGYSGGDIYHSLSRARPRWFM
Experiment: Standard HCV NS5B RdRp enzyme assay
Assay type: biochemical
Conditions: standard method
Overview of recorded IC50 for various compounds

compound | IC50
O=C(O)c1ccc2c(C3CCCCC3)c3n(c2c1)CC(C(=O)N1CCOCC1)Cc1ccccc1-3 (stereo not shown) [drawing 115] | 100 to 1000 nM
O=C(O)CCCc1nc(C2(NC(=O)c3ccc4c(C5CCCCC5)c5n(c4c3)CC=Cc3ccccc3-5)CCCC2)no1 [Example 23] | > 1000 nM
O=C(O)c1ccc2c(C3CCCCC3)c3n(c2c1)CC(C(=O)N1CCCCC1)Cc1ccccc1-3 (stereo not shown) [drawing 116] | 100 to 1000 nM
CN(C)S(=O)(=O)NC(=O)c1ccc2c(C3CCCCC3)c3n(c2c1)CC=Cc1ccccc1-3 [Example 19] | 100 to 1000 nM
O=C(O)/C=C/c1ccc(NC(=O)C2(NC(=O)c3ccc4c(C5CCCCC5)c5n(c4c3)CCOc3cccnc3-5)CCCC2)cc1 | 100 to 1000 nM
COC(=O)c1ccc2c(C3CCCCC3)c3n(c2c1)C(O)c1ccccc1-3 (stereo not shown) [Example 8] | > 1000 nM
O=C(O)c1ccc2c(C3CCCCC3)c3n(c2c1)CC(C(=O)N1CCN(c2ccncc2)CC1)Cc1ccccc1-3 (stereo not shown) | 100 to 1000 nM
COC(=O)c1ccc2c(C3CCCCC3)c3n(c2c1)CC(C(=O)N1CCN(c2ccncc2)CC1)=Cc1ccccc1-3 | > 1000 nM
O=C(O)/C=C/c1ccc(NC(=O)C2(NC(=O)c3ccc4c(C5CCCCC5)c5n(c4c3)CC(C(=O)N3CCOCC3)Cc3ccccc3-5)CCCC2)cc1 (stereo not shown) | 100 to 1000 nM
COC(=O)c1ccc2c(C3CCCCC3)c3n(c2c1)CC(=O)Nc1cccnc1-3 [Example 14] | > 1000 nM
O=C(O)/C=C/c1ccc(-c2nc(C3(NC(=O)c4ccc5c(C6CCCCC6)c6n(c5c4)CC=Cc4ccccc4-6)CCCC3)no2)cc1 [Example 25] | > 1000 nM
CN(C)S(=O)(=O)NC(=O)c1ccc2c(C3CCCCC3)c3n(c2c1)CC(C(=O)N1CCOCC1)Cc1ccccc1-3 (stereo not shown) | 100 to 1000 nM
O=C(O)/C=C/c1ccc(NC(=O)C2(NC(=O)c3ccc4c(C5CCCCC5)c5n(c4c3)CCCc3ncccc3-5)CCCC2)cc1 | 100 to 1000 nM
O=C(O)/C=C/c1ccc(NC(=O)C2(NC(=O)c3ccc4c(C5CCCCC5)c5n(c4c3)CCOc3ccccc3-5)CCCC2)cc1 | 100 to 1000 nM
CCOC(=O)/C=C/c1ccc(NC(=O)C2(NC(=O)c3ccc4c(C5CCCCC5)c5n(c4c3)CCCc3ncccc3-5)CCCC2)cc1 | > 1000 nM
O=C(O)c1ccc2c(C3CCCCC3)c3n(c2c1)CCCc1ccccc1-3 [Example 3] | 100 to 1000 nM
COC(=O)/C=C/c1ccc(NC(=O)C2(NC(=O)c3ccc4c(C5CCCCC5)c5n(c4c3)CCOc3cccnc3-5)CCCC2)cc1 | > 1000 nM
O=C(O)c1ccc2c(C3CCCCC3)c3n(c2c1)CC(C(=O)N1CCN(c2ccncc2)CC1)=Cc1ccccc1-3 | 100 to 1000 nM
O=C(O)c1ccc2c(C3CCCCC3)c3n(c2c1)CC=Cc1cc(OCc2ccccc2)ccc1-3 | > 1000 nM
O=C(O)c1ccc2c(C3CCCCC3)c3n(c2c1)CCCc1cc(O)ccc1-3 | 100 to 1000 nM
COC(=O)c1ccc2c(C3CCCCC3)c3n(c2c1)Cc1ccccc1-3 [Example 6] | > 1000 nM
CN(C)CCNC(=O)C1Cc2ccccc2-c2c(C3CCCCC3)c3ccc(C(=O)O)cc3n2C1 (stereo not shown) | 100 to 1000 nM
CN(C)S(=O)(=O)NC(=O)c1ccc2c(C3CCCCC3)c3n(c2c1)CC(C(=O)N1CCN(c2ccncc2)CC1)Cc1ccccc1-3 (stereo not shown) | 100 to 1000 nM
O=C(O)c1ccc2c(C3CCCCC3)c3n(c2c1)CCCCNc1ccccc1-3 | > 1000 nM
O=C1Cn2c(c(C3CCCCC3)c3ccc(C(=O)O)cc32)-c2ncccc2N1 [Example 15] | 100 to 1000 nM
COC(=O)/C=C/c1ccc(NC(=O)C2(NC(=O)c3ccc4c(C5CCCCC5)c5n(c4c3)CCOc3ccccc3-5)CCCC2)cc1 | > 1000 nM
O=C(O)/C=C/c1ccc(NC(=O)C2(NC(=O)c3ccc4c(C5CCCCC5)c5n(c4c3)CC(=O)Nc3cccnc3-5)CCCC2)cc1 | 100 to 1000 nM
COC(=O)c1ccc2c(C3CCCCC3)c3n(c2c1)CC(C(=O)N1CCOCC1)=Cc1ccccc1-3 | > 1000 nM
COC(=O)c1ccc2c(C3CCCCC3)c3n(c2c1)CCCc1ccccc1-3 [Example 2] | > 1000 nM
O=C(O)c1ccc2c(C3CCCCC3)c3n(c2c1)CC(C(=O)N1CCOCC1)Cc1ccccc1-3 (stereo not shown) [drawing 113] | 100 to 1000 nM
CN1CCN(C(=O)C2Cc3ccccc3-c3c(C4CCCCC4)c4ccc(C(=O)NS(=O)(=O)N(C)C)cc4n3C2)CC1 (stereo not shown) | 100 to 1000 nM

Just for reference, patent US7348425B2 is where these values come from.
